Biological target: CDK6/Cyclin D3 (Homo sapiens (Human))
Sequence (Q00534 whole entry): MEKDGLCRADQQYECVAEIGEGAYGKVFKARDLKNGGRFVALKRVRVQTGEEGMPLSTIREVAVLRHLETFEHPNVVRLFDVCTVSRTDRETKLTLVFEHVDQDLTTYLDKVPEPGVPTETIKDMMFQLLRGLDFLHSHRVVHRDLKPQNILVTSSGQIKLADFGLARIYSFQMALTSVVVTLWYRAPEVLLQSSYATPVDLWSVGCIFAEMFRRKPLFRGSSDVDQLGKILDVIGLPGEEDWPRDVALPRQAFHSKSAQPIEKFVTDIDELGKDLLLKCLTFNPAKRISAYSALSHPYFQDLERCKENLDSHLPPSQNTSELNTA
Sequence (P30281 whole entry partner): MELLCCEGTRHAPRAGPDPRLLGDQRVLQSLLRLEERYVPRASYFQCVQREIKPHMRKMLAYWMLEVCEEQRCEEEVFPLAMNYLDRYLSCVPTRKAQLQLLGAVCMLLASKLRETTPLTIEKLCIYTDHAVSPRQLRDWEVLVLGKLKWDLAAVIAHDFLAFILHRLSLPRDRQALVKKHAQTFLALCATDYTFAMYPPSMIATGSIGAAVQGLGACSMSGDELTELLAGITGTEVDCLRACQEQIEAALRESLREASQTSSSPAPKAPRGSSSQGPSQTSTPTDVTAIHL
Assay: CDK6/Cyclin D3 CHEF assay (Chelation-Enhanced Fluorescence), Ki by Morrison equation
Assay type: biochemical
Conditions: geometric mean; tested in CHEF Assay; read-out: CDK6/Cyclin D3: GMean Ki
For each of the molecules below, state its pKi.
Expect pKi as a plain number equal to -log10 of the molar concentration.

query: For the molecule CC(=O)c1c(C)c2cnc(N[C@H]3CCOC[C@@H]3O)cc2n(C2CCCC2)c1=O [Example 33] , give its measured pKi value.
result: 6.89

query: Please supply the value of reported pKi for the item CC(=O)c1c(C)c2cnc(N[C@@H]3CCOC[C@H]3O)nc2n([C@@H]2CCC[C@]2(C)F)c1=O (mixture of isomers) [Example 16]
result: 8.30

query: Determine its reported pKi: CC(=O)c1c(C)c2cnc(N[C@@H]3CCOC[C@H]3O)nc2n([C@H]2CCNC2)c1=O [Example 18]
result: 7.47

query: Give pKi for the following molecule: CC(=O)c1c(C)c2cnc(N[C@@H]3CCOC[C@H]3O)nc2n([C@@H]2CC[C@@H]3C[C@@H]32)c1=O (mixture of isomers) [Example 13]
result: 8.48

query: Specify reported pKi for the molecule shown: CC(=O)c1c(C)c2cnc(N[C@@H]3CCOC[C@H]3O)nc2n(C2CC2)c1=O [Example 34]
result: 7.07

query: Return reported pKi. Input molecule: CC(=O)c1c(C)c2cnc(N[C@@H]3CCOC[C@H]3O)cc2n([C@H]2CCOC2)c1=O [Example 11]
result: 7.80

query: Fill in reported pKi for this entry: CC(=O)c1c(C)c2cnc(N[C@@H]3CCOC[C@H]3O)nc2n([C@@H]2CCNC2)c1=O [Example 27]
result: 7.60

query: Quick one: give measured pKi for CC(=O)c1c(C)c2cnc(N[C@@H]3CCOC[C@H]3O)nc2n([C@H]2CC[C@@H](O)CC2)c1=O [Example 20]
result: 7.24

query: Quick one: give measured pKi for CC(=O)c1c(C)c2cnc(N[C@@H]3CCOC[C@H]3O)nc2n(C2CCNCC2)c1=O [Example 32]
result: 7.57

query: Let me know recorded pKi for CC(=O)c1c(C)c2cnc(N[C@@H]3CCOC[C@H]3O)nc2n([C@H]2C[C@H](O)C2)c1=O [Example 21] , thanks.
result: 7.89

query: Answer with the recorded pKi of CC(=O)c1c(C)c2cnc(N[C@@H]3CCOC[C@H]3O)nc2n(C2CCC2)c1=O [Example 1] only.
result: 8.70

query: Let me know recorded pKi for CC(=O)c1c(C)c2cnc(N[C@@H]3CCOC[C@H]3O)nc2n(C2CC(C)(C)C2)c1=O [Example 19] , thanks.
result: 8.38

query: Specify pKi for COCCN1CC2(CC(n3c(=O)c(C(C)=O)c(C)c4cnc(N[C@@H]5CCOC[C@H]5O)nc43)C2)C1 [Example 28] and stop.
result: 7.44

query: Find the measured pKi of CC(=O)c1c(C)c2cnc(N[C@@H]3CCOC[C@H]3O)cc2n(C2CCC(O)C2)c1=O (single isomer, unassigned) [Example 14] and report it.
result: 8.59

query: Consider the molecule CC(=O)c1c(C)c2cnc(N[C@@H]3CCOC[C@H]3O)nc2n([C@@H]2CC[C@@H]3C[C@@H]32)c1=O (mixture of isomers) [Example 12] and give its recorded pKi.
result: 8.01

query: Specify measured pKi for CC(=O)c1c(C)c2cnc(N[C@@H]3CCOC[C@H]3O)nc2n(C2CC3(C2)CN(CC(F)F)C3)c1=O [Example 29] .
result: 8.31

query: Tell me its pKi given CC(=O)c1c(C)c2cnc(N[C@@H]3CCOC[C@H]3O)nc2n([C@H]2CC[C@H](N)CC2)c1=O [Example 24] as the entry.
result: 7.62

query: Output pKi of CC[C@H]1CCC[C@H]1n1c(=O)c(C(C)=O)c(C)c2cnc(N[C@@H]3CCOC[C@H]3O)nc21 [Example 10]
result: 8.30

query: Name the recorded pKi of the molecule listed here: CC(=O)c1c(C)c2cnc(N[C@@H]3CCOC[C@H]3O)nc2n([C@H]2CC[C@H](N(C)C)CC2)c1=O [Example 25]
result: 6.96

query: Tell us which pKi value is on record for CC(=O)c1c(C)c2cnc(N[C@@H]3CCOC[C@H]3O)nc2n([C@H]2CCC[C@]2(C)O)c1=O (mixture of isomers) [Example 6]
result: 6.72

query: Please indicate pKi recorded for CC(=O)c1c(C)c2cnc(N[C@@H]3CCOC[C@H]3O)nc2n([C@H]2CCOC2)c1=O [Example 31]
result: 7.54

query: Dear colleague, please send me the reported pKi for CC(=O)c1c(C)c2cnc(N[C@@H]3CCOC[C@H]3O)nc2n([C@H]2CCN(C)C2)c1=O [Example 26] when you can.
result: 7.41

query: Name the recorded pKi of the item CC(=O)c1c(C)c2cnc(N[C@@H]3CCOC[C@H]3O)cc2n(C2CCC(O)C2)c1=O (single isomer, unassigned) [Example 15] in your answer.
result: 8.11

query: Given the molecule CC(=O)c1c(C)c2cnc(N[C@@H]3CCOC[C@H]3O)nc2n([C@@H]2CCC[C@@H]2C)c1=O [Example 4] , write its reported pKi.
result: 8.68

query: Return reported pKi. Input molecule: CC(=O)c1c(C)c2cnc(N[C@@H]3CCOC(C)(C)[C@H]3O)nc2n(C2CCCC2)c1=O (mixture of isomers) [Example 9]
result: 8.17

query: Give the value of pKi reported for the following: CC(=O)c1c(C)c2cnc(N[C@@H]3CCOC[C@H]3O)nc2n(C2CC3(CNC3)C2)c1=O [Example 3]
result: 8.68

query: Output measured pKi for this item: CC(=O)c1c(C)c2cnc(N[C@@H]3CCOC[C@H]3O)nc2n([C@H]2CCC[C@]2(C)O)c1=O (mixture of isomers) [Example 7]
result: 8.11

Values from patent US11203594B2
